# experimental_target: human MDM2 protein (amino acids 2-188) (Homo sapiens (Human), UniProt Q00987)
# Sequence (Q00987 2-188): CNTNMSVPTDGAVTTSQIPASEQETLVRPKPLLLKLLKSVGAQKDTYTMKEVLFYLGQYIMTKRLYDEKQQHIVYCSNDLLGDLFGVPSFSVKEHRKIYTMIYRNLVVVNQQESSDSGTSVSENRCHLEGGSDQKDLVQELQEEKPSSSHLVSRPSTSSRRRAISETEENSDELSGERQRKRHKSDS
# protocol_notes: TR-FRET assay, p53-MDM2 Assay 2 (modified)
# Assay type: binding
# applied_conditions: TR-FRET; 0.1 nM MDM2, 0.1 nM Europium labeled streptavidin, Tecan genios Pro reader; read-out: IC50 p53-MDM2 Assay 2
parameter_measured: pIC50
In textbook form, pIC50 equals minus log to base ten of the concentration in mol/L.

For orientation, consider the following solved cases.
[
  {
    "compound": "COc1ccc(C(=O)O)cc1-c1cc2c(n1C(C)C)C(c1ccc(Cl)cc1)N(c1ccc(F)c(Cl)c1)C2=O (stereo not shown)",
    "pIC50": 9.45
  },
  {
    "compound": "CNC(=O)c1ccc(OC)c(-c2cc3c(n2C(C)C)[C@H](c2ccc(Cl)cc2C)N(c2cccc(Cl)c2F)C3=O)c1",
    "pIC50": 9.92
  },
  {
    "compound": "COc1nc(N(C)C)ncc1-c1cc2c(n1C(C)C)C(c1ccc(Cl)cc1)N(c1ccc(F)c(Cl)c1)C2=O (stereo not shown)",
    "pIC50": 9.34
  },
  {
    "compound": "COc1ccc(C(=O)NOCCO)cc1-c1cc2c(n1C(C)C)C(c1ccc(Cl)cc1)N(c1cc(Cl)ccc1C)C2=O (stereo not shown)",
    "pIC50": 9.90
  },
  {
    "compound": "CNc1ncc(-c2cc3c(n2C(C)C)C(c2ccc(C#N)cc2)N(c2c[nH]c(=O)c(Cl)c2)C3=O)c(OC)n1 (stereo not shown)",
    "pIC50": 9.49
  }
]

Now look at this entry.
Which measured pIC50 value corresponds to COc1ncc(-c2cc3c(n2C(C)C)C(c2ccc(C#N)c(F)c2)N(c2cc(Cl)c(=O)n(C)c2)C3=O)c(OC)n1 (stereo not shown) ? 9.60
